- tgt: T1, mfNPR1-mFc (monkey)
- T1 construct: also called dimeric monkey NPR1
- T1 chain: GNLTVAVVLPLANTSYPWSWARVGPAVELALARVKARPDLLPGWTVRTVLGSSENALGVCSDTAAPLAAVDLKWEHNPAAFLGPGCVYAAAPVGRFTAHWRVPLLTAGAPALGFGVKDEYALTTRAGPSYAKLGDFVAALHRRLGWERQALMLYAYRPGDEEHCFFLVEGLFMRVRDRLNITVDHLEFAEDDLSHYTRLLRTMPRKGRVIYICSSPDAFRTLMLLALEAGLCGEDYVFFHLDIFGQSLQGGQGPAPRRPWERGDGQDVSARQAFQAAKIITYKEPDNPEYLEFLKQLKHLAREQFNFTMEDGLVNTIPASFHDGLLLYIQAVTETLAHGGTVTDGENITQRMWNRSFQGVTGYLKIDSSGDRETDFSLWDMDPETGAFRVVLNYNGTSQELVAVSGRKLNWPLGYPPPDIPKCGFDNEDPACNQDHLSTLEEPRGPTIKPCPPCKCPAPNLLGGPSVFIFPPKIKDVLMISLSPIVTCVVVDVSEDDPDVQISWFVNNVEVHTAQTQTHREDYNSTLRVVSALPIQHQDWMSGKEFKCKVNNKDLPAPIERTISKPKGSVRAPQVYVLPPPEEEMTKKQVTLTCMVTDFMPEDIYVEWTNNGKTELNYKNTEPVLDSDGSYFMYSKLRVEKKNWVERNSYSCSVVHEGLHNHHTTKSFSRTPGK
- procedureDetails: SPR, mAb captured, 37C
Exercise: state measured t½ for each of the binders provided.
Field: numeric (h). Do not append units.

Q: So what does the record say about t½ for mAb25479 (antibody, human IgG4, V domains shown) VH: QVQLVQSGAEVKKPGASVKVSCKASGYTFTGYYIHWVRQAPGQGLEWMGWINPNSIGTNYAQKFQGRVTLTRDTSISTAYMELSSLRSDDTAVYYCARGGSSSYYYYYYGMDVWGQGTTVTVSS VL: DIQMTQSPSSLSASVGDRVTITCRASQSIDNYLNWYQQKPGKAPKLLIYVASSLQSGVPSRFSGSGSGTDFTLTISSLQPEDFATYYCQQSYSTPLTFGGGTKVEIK ?
Ans: 0.178

Q: Proceed to mAb25491 (antibody, human IgG4, V domains shown) VH: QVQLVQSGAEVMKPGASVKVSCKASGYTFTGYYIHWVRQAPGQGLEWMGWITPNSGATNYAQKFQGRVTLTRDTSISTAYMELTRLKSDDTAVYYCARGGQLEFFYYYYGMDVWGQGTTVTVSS VL: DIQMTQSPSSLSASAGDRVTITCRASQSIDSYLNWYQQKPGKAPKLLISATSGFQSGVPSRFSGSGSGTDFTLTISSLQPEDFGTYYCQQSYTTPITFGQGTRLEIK
Ans: 1.17

Q: Proceed to mAb22033 (antibody, human IgG4, V domains shown) VH: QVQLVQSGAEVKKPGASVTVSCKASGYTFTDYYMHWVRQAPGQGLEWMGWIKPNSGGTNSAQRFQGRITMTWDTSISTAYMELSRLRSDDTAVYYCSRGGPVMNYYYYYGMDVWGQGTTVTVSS VL: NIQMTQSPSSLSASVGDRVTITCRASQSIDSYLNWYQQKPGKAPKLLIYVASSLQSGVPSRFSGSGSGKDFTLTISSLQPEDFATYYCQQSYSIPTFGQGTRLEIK
Ans: 1.95
